method_summary: total protein half-life in vivo (active degradation + dilution); higher = more stable protein
condition_description: wild type E. coli NCM3722; growth: C-lim chemostat; doubling time 6 h
Recorded total protein half-life in vivo for the following sequences
Hi! Could you send only the number? It should be in h, unit omitted.

Solved cases below.
# sequence_chain, total protein half-life in vivo [h]
records = [
    ("MSTIEERVKKIIGEQLGVKQEEVTNNASFVEDLGADSLDTVELVMALEEEFDTEIPDEEAEKITTVQAAIDYINGHQA [P0A6A8]", 4.95),
    ("MSLINTKIKPFKNQAFKNGEFIEITEKDTEGRWSVFFFYPADFTFVCPTELGDVADHYEELQKLGVDVYAVSTDTHFTHKAWHSSSETIAKIKYAMIGDPTGALTRNFDNMREDEGLADRATFVVDPQGIIQAIEVTAEGIGRDASDLLRKIKAAQYVASHPGEVCPAKWKEGEATLAPSLDLVGKI [P0AE08]", 5.05),
]

total protein half-life in vivo reading for MIEFSHVSKLFGAQKAVNDLNLNFQEGSFSVLIGTSGSGKSTTLKMINRLVEHDSGEIRFAGEEIRSLPVLELRRRMGYAIQSIGLFPHWSVAQNIATVPQLQKWSRARIDDRIDELMALLGLESNLRERYPHQLSGGQQQRVGVARALAADPQVLLMDEPFGALDPVTRGALQQEMTRIHRLLGRTIVLVTHDIDEALRLAEHLVLMDHGEVVQQGNPLTMLTRPANDFVRQFFGRSELGVRLLSLRSVADYVRREERADGEALAEEMTLRDALSLFVARGCEVLPVVNMQGQPCGTLHFQDLLVEA : 4.96

sequence MQNITQSWFVQGMIKATTDAWLKGWDERNGGNLTLRLDDADIAPYHDNFHQQPRYIPLSQPMPLLANTPFIVTGSGKFFRNVQLDPAANLGIVKVDSDGAGYHILWGLTNEAVPTSELPAHFLSHCERIKATNGKDRVIMHCHATNLIALTYVLENDTAVFTRQLWEGSTECLVVFPDGVGILPWMVPGTDEIGQATAQEMQKHSLVLWPFHGVFGSGPTLDETFGLIDTAEKSAQVLVKVYSMGGMKQTISREELIALGKRFGVTPLASALAL , total protein half-life in vivo observed: 5.1

----------
Measured total protein half-life in vivo values are reported for all entries that follow.
method_summary: total protein half-life in vivo (active degradation + dilution); higher = more stable protein
condition_description: E. coli NCM3722 delta-clpP delta-lon delta-hslV; growth: N-lim chemostat; doubling time 6 h
Hi! Could you send only the number? It should be in h, unit omitted.

The cases that follow already have their total protein half-life in vivo on record.
# sequence_chain, readout_type, reported_measurement
rows = [
    ("MQCALYDAGRCRSCQWIMQPIPEQLSAKTADLKNLLADFPVEEWCAPVSGPEQGFRNKAKMVVSGSVEKPLLGMLHRDGTPEDLCDCPLYPASFAPVFAALKPFIARAGLTPYNVARKRGELKYILLTESQSDGGMMLRFVLRSDTKLAQLRKALPWLHEQLPQLKVITVNIQPVHMAIMEGETEIYLTEQQALAERFNDVPLWIRPQSFFQTNPAVASQLYATARDWVRQLPVKHMWDLFCGVGGFGLHCATPDMQLTGIEIASEAIACAKQSAAELGLTRLQFQALDSTQFATAQGDVPELVLVNPPRRGIGKPLCDYLSTMAPRFIIYSSCNAQTMAKDIRELPGFRIERVQLFDMFPHTAHYEVLTLLVKQ", "total protein half-life in vivo", 5.35),
    ("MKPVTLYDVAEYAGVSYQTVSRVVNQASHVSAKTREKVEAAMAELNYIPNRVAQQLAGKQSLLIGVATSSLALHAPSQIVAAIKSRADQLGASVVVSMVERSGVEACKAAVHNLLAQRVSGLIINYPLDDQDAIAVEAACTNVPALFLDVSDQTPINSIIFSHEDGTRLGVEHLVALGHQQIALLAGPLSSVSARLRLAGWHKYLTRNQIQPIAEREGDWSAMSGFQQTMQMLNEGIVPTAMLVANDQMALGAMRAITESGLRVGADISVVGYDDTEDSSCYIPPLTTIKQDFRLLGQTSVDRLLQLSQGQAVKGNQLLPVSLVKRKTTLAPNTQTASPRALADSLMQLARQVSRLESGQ", "total protein half-life in vivo", 5.83),
]

So, MVSRYVPDMGDLIWVDFDPTKGSEQAGHRPAVVLSPFMYNNKTGMCLCVPCTTQSKGYPFEVVLSGQERDGVALADQVKSIAWRARGATKKGTVAPEELQLIKAKINVLIG [P0AE70] ? Its total protein half-life in vivo was 6.61

----------
total protein half-life in vivo by entry:
method_summary: total protein half-life in vivo (active degradation + dilution); higher = more stable protein
condition_description: wild type E. coli NCM3722; growth: N-lim chemostat; doubling time 6 h
Provide the reading as a plain figure in h.

Consider the following illustrative entries.
# sequence_chain, readout_type, measure_unit, reported_measurement
data = [
    ("MIVTIVGWLVLFVFLPNLMIIGTSFLTRDDASFVKMVFTLDNYTRLLDPLYFEVLLHSLNMALIATLACLVLGYPFAWFLAKLPHKVRPLLLFLLIVPFWTNSLIRIYGLKIFLSTKGYLNEFLLWLGVIDTPIRIMFTPSAVIIGLVYILLPFMVMPLYSSIEKLDKPLLEAARDLGASKLQTFIRIIIPLTMPGIIAGCLLVMLPAMGLFYVSDLMGGAKNLLIGNVIKVQFLNIRDWPFGAATSITLTIVMGLMLLVYWRASRLLNKKVELE [P0AFK4]", "total protein half-life in vivo", "h", 5.03),
    ("MDNDKIDQHSDEIEVESEEKERGKKIEIDEDRLPSRAMAIHEHIRQDGEKELERDAMALLWSAIAAGLSMGASLLAKGIFQVELEGVPGSFLLENLGYTFGFIIVIMARQQLFTENTVTAVLPVMQKPTMSNVGLLIRLWGVVLLGNILGTGIAAWAFEYMPIFNEETRDAFVKIGMDVMKNTPSEMFANAIISGWLIATMVWMFPAAGAAKIVVIILMTWLIALGDTTHIVVGSVEILYLVFNGTLHWSDFIWPFALPTLAGNICGGTFIFALMSHAQIRNDMSNKRKAEARQKAERAENIKKNYKNPA", "total protein half-life in vivo", "h", 5.75),
    ("MSKAGASLATCYGPVSADVIAKAENIRLLILDVDGVLSDGLIYMGNNGEELKAFNVRDGYGIRCALTSDIEVAIITGRKAKLVEDRCATLGITHLYQGQSNKLIAFSDLLEKLAIAPENVAYVGDDLIDWPVMEKVGLSVAVADAHPLLIPRADYVTRIAGGRGAVREVCDLLLLAQGKLDEAKGQSI [P0ABZ4]", "total protein half-life in vivo", "h", 4.81),
]

Note to self: total protein half-life in vivo recorded for MERNVTLDFVRGVAILGILLLNISAFGLPKAAYLNPAWYGAITPRDAWTWAFLDLIGQVKFLTLFALLFGAGLQMLLPRGRRWIQSRLTLLVLLGFIHGLLFWDGDILLAYGLVGLICWRLVRDAPSVKSLFNTGVMLYLVGLGVLLLLGLISDSQTSRAWTPDASAILYEKYWKLHGGVEAISNRADGVGNSLLALGAQYGWQLAGMMLIGAALMRSGWLKGQFSLRHYRRTGFVLVAIGVTINLPAIALQWQLDWAYRWCAFLLQMPRELSAPFQAIGYASLFYGFWPQLSRFKLVLAIACVGRMALTNYLLQTLICTTLFYHLGLFMHFDRLELLAFVIPVWLANILFSVIWLRYFRQGPVEWLWRQLTLRAAGPAISKTSR was 6.72

Record MTRPIQASLDLQALKQNLSIVRQAATHARVWSVVKANAYGHGIERIWSAIGATDGFALLNLEEAITLRERGWKGPILMLEGFFHAQDLEIYDQHRLTTCVHSNWQLKALQNARLKAPLDIYLKVNSGMNRLGFQPDRVLTVWQQLRAMANVGEMTLMSHFAEAEHPDGISGAMARIEQAAEGLECRRSLSNSAATLWHPEAHFDWVRPGIILYGASPSGQWRDIANTGLRPVMTLSSEIIGVQTLKAGERVGYGGRYTARDEQRIGIVAAGYADGYPRHAPTGTPVLVDGVRTMTVGTVSMDMLAVDLTPCPQAGIGTPVELWGKEIKIDDVAAAAGTVGYELMCALALRVPVVTV . Reported total protein half-life in vivo: 3.6

Looking up MIYPDEAMLYAPVEWHDCSEGFEDIRYEKSTDGIAKITINRPQVRNAFRPLTVKEMIQALADARYDDNIGVIILTGAGDKAFCSGGDQKVRGDYGGYKDDSGVHHLNVLDFQRQIRTCPKPVVAMVAGYSIGGGHVLHMMCDLTIAADNAIFGQTGPKVGSFDGGWGASYMARIVGQKKAREIWFLCRQYDAKQALDMGLVNTVVPLADLEKETVRWCREMLQNSPMALRCLKAALNADCDGQAGLQELAGNATMLFYMTEEGQEGRNAFNQKRQPDFSKFKRNP [P0ABU0] , I found its total protein half-life in vivo recorded as 3.88

For MSNPILSWRRVRALCVKETRQIVRDPSSWLIAVVIPLLLLFIFGYGINLDSSKLRVGILLEQRSEAALDFTHTMTGSPYIDATISDNRQELIAKMQAGKIRGLVVIPVDFAEQMERANATAPIQVITDGSEPNTANFVQGYVEGIWQIWQMQRAEDNGQTFEPLIDVQTRYWFNPAAISQHFIIPGAVTIIMTVIGAILTSLVVAREWERGTMEALLSTEITRTELLLCKLIPYYFLGMLAMLLCMLVSVFILGVPYRGSLLILFFISSLFLLSTLGMGLLISTITRNQFNAAQVALNAAFLPSIMLSGFIFQIDSMPAVIRAVTYIIPARYFVSTLQSLFLAGNIPVVLVVNVLFLIASAVMFIGLTWLKTKRRLD [P0AFQ2] the sequence record lists total protein half-life in vivo as 6.36

The values you see were collected from the supplement of paper PMC11246515.
